Reference for the values: ChEMBL document CHEMBL5226324

- SYSTEM NAME: Translocator protein (Homo sapiens, UniProt P30536)
- Sequence (P30536 whole entry): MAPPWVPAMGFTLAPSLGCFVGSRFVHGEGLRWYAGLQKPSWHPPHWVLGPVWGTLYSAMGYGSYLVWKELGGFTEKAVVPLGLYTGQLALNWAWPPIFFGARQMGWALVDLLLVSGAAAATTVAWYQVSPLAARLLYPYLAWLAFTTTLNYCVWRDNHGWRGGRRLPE
- PROCEDURE DETAILS: Binding affinity to human TSPO
MEASURED QUANTITY: pKd
Note on pKd: it is the negative log10 of concentration, concentration in mol/L.

Enquiry: Request the reported pKd associated with CCC(C)N(C)C(=O)c1cc2ccccc2c(-c2ccccc2[123I])n1 (stereo unspecified)
Return: 8.00

* * *

- SYSTEM NAME: Translocator protein (Homo sapiens, UniProt P30536)
- PROCEDURE DETAILS: Binding affinity to TSPO receptor (unknown origin)
MEASURED QUANTITY: pKd
Note on pKd: it is the negative log10 of concentration, concentration in mol/L.

Enquiry: Give pKd (Translocator protein (Homo sapiens, UniProt P30536)) of the following compound: CN1C(=O)CN=C(c2ccc(Cl)cc2)c2cc(Cl)ccc21
Return: 8.96

* * *

- PROCEDURE DETAILS: Lipophilicity, log P of the compound at pH 7.4
- Assay type: physicochemical
- MEASUREMENT CONTEXT: buffer
MEASURED QUANTITY: logD
Please reply with the value in numeric form only.

Enquiry: Request the reported logD associated with CC(=O)N(Cc1ccccc1OCC[18F])c1cnccc1Oc1ccccc1
Return: 2.99

* * *

- SYSTEM NAME: Translocator protein (Rattus norvegicus, UniProt P16257)
- Sequence (P16257 whole entry, looked up): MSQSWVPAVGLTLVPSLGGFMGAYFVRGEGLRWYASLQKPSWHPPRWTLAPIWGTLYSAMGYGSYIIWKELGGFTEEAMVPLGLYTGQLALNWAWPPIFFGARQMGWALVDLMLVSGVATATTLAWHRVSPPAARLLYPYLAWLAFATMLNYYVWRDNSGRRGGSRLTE
MEASURED QUANTITY: pKd
Note on pKd: it is the negative log10 of concentration, concentration in mol/L.

Enquiry: Give pKd (Translocator protein (Rattus norvegicus, UniProt P16257)) of the following compound: CCN(CC)C(=O)Cc1c(-c2ccc([123I])cc2)nc2ccc(Cl)cn12
Return: 8.42
